Biological target: TACE (Homo sapiens)
Sequence (P78536 215-824): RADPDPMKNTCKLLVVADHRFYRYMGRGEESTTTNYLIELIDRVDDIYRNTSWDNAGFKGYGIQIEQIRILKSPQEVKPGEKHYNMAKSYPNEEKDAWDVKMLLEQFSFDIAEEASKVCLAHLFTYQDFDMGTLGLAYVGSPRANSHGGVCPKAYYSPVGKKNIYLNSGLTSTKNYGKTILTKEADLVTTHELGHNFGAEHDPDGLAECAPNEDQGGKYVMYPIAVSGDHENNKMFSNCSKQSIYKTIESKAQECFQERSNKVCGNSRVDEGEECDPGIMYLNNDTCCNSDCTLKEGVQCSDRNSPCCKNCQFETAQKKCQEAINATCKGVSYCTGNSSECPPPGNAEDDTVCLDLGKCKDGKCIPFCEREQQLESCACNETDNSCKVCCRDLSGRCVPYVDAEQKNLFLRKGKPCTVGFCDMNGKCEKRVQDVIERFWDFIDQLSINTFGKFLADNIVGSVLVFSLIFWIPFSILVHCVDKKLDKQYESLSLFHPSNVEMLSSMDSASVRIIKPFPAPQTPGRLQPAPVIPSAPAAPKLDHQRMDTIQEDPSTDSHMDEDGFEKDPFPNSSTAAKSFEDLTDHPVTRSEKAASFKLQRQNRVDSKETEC
Assay: TACE inhibition (fluorescent peptidyl substrate)
Type: biochemical
Conditions: read-out: TACE IC50
Structures can show the parent of a compound that is named as a salt.
experimental-readout: pIC50
# pIC50: negative log10 of molar concentration; output just the value

Q: Which pIC50 is reported with TACE (Homo sapiens) for this entry: COc1ccc(S(=O)(=O)N(Cc2cccnc2)c2c(C)cc(-c3ccco3)cc2C(=O)NO)cc1 [Example 255] ?
Result: 7.19

Q: Which pIC50 is reported with TACE (Homo sapiens) for this entry: COc1ccc(S(=O)(=O)N(Cc2ccccc2)c2c(C)cc(N(C)C)cc2C(=O)NO)cc1 [Example 389] ?
Result: 6.20

Q: Which pIC50 is reported with TACE (Homo sapiens) for this entry: COc1ccc(S(=O)(=O)N(Cc2cccnc2)c2c(C)cc(-c3ccc(C=NO)cc3)cc2C(=O)NO)cc1 [Example 249] ?
Result: 7.00

Q: Which pIC50 is reported with TACE (Homo sapiens) for this entry: CCOc1ccc(S(=O)(=O)N(Cc2ccccc2)c2c(C)cc(C)cc2C(=O)NO)cc1 [Example 302] ?
Result: 6.76

Q: Which pIC50 is reported with TACE (Homo sapiens) for this entry: COc1ccc(S(=O)(=O)N(Cc2ccccc2)c2ccc(C)cc2C(=O)NO)cc1 [Example 29] ?
Result: 6.00

Q: Which pIC50 is reported with TACE (Homo sapiens) for this entry: COc1ccc(S(=O)(=O)N(Cc2cccnc2)c2c(C)cc(-c3cccs3)cc2C(=O)NO)cc1 [Example 175] ?
Result: 7.24

Q: Which pIC50 is reported with TACE (Homo sapiens) for this entry: COc1ccc(S(=O)(=O)N(Cc2cccnc2)c2c(C)cc(-c3ccccc3C=NO)cc2C(=O)NO)cc1 [Example 243] ?
Result: 7.18

Q: Which pIC50 is reported with TACE (Homo sapiens) for this entry: COc1ccc(S(=O)(=O)N(C)c2c(C)cc(CCc3ccc(-c4ccccc4)cc3)cc2C(=O)NO)cc1 [Example 355] ?
Result: 6.54

Q: Which pIC50 is reported with TACE (Homo sapiens) for this entry: COc1ccc(-c2cc(C)c(N(Cc3cccnc3)S(=O)(=O)c3ccc(OC)cc3)c(C(=O)NO)c2)cc1 [Example 401, hydrochloride salt] ?
Result: 6.84

Q: Which pIC50 is reported with TACE (Homo sapiens) for this entry: COc1ccc(S(=O)(=O)N(Cc2ccccc2)c2c(OC(C)C)cccc2C(=O)NO)cc1 [Example 60] ?
Result: 6.63

Q: Which pIC50 is reported with TACE (Homo sapiens) for this entry: COc1ccc(S(=O)(=O)N(Cc2ccc(C(=O)NCCN3CCCCC3)cc2)c2c(C)cccc2C(=O)NO)cc1 [Example 396] ?
Result: 6.44

Q: Which pIC50 is reported with TACE (Homo sapiens) for this entry: COc1ccc(S(=O)(=O)N(Cc2cccnc2)c2c(C)cc(-c3ccc(Cl)s3)cc2C(=O)NO)cc1 [Example 261] ?
Result: 7.27

Q: Which pIC50 is reported with TACE (Homo sapiens) for this entry: COc1ccc(S(=O)(=O)N(Cc2ccsc2)c2c(CN3CCN(C)CC3)cccc2C(=O)NO)cc1 [Example 328] ?
Result: 6.58

Q: Which pIC50 is reported with TACE (Homo sapiens) for this entry: COc1ccc(S(=O)(=O)N(Cc2ccccc2)c2c(OCCO)cccc2C(=O)NO)cc1 [Example 345] ?
Result: 6.28

Q: Which pIC50 is reported with TACE (Homo sapiens) for this entry: CCN(CC)Cc1cccc(C(=O)NO)c1N(C)S(=O)(=O)c1ccc(OC)cc1 [Example 191] ?
Result: 6.68

Q: Which pIC50 is reported with TACE (Homo sapiens) for this entry: COC(=O)c1cccc(C(=O)NO)c1N(C)S(=O)(=O)c1ccc(OC)cc1 [Example 373] ?
Result: 6.27

Q: Which pIC50 is reported with TACE (Homo sapiens) for this entry: CCCCCCCCN(C)C(=O)CCc1cc(C)c(N(C)S(=O)(=O)c2ccc(OC)cc2)c(C(=O)NO)c1 [Example 212] ?
Result: 6.50

Q: Which pIC50 is reported with TACE (Homo sapiens) for this entry: COc1ccc(S(=O)(=O)N(C)c2c(C)cc(C#Cc3ccc(-c4ccccc4)cc3)cc2C(=O)NO)cc1 [Example 353] ?
Result: 6.11

Q: Which pIC50 is reported with TACE (Homo sapiens) for this entry: COc1ccc(S(=O)(=O)N(Cc2cccnc2)c2c(C)cc(-c3cccc(C=NO)c3)cc2C(=O)NO)cc1 [Example 246] ?
Result: 7.25

Q: Which pIC50 is reported with TACE (Homo sapiens) for this entry: COc1ccc(S(=O)(=O)N(Cc2ccccc2)c2c(C(=O)NO)cccc2[N+](=O)[O-])cc1 [Example 170] ?
Result: 6.75

Q: Which pIC50 is reported with TACE (Homo sapiens) for this entry: COc1ccc(S(=O)(=O)N(Cc2cccnc2)c2c(Br)cc(C)cc2C(=O)NO)cc1 [Example 138] ?
Result: 6.67

Q: Which pIC50 is reported with TACE (Homo sapiens) for this entry: COc1ccc(S(=O)(=O)N(C)c2c(CN3CCN(C)CC3)cccc2C(=O)NO)cc1 [Example 194] ?
Result: 6.81

Q: Which pIC50 is reported with TACE (Homo sapiens) for this entry: COc1ccc(S(=O)(=O)N(Cc2ccc(Br)cc2)c2c(C)cc(C)cc2C(=O)NO)cc1 [Example 120] ?
Result: 6.51

Q: Which pIC50 is reported with TACE (Homo sapiens) for this entry: CCN(CC)Cc1ccc(CN(c2c(C)cccc2C(=O)NO)S(=O)(=O)c2ccc(OC)cc2)cc1 [Example 377] ?
Result: 6.59

Q: Which pIC50 is reported with TACE (Homo sapiens) for this entry: CCCCOc1ccc(S(=O)(=O)N(Cc2ccccc2)c2c(C)cc(C)cc2C(=O)NO)cc1 [Example 72] ?
Result: 6.42

Q: Which pIC50 is reported with TACE (Homo sapiens) for this entry: CCCCCCCCN(c1c(CN2CCN(C)CC2)cccc1C(=O)NO)S(=O)(=O)c1ccc(OC)cc1 [Example 325] ?
Result: 5.79

Q: Which pIC50 is reported with TACE (Homo sapiens) for this entry: COc1ccc(S(=O)(=O)N(Cc2cccnc2)c2c(C)cc(-c3sccc3C=NO)cc2C(=O)NO)cc1 [Example 258] ?
Result: 6.96

Q: Which pIC50 is reported with TACE (Homo sapiens) for this entry: Cc1cc(Br)cc(C(=O)NO)c1N(Cc1ccccc1)S(=O)(=O)c1ccc(OCc2ccccc2)cc1 [Example 308] ?
Result: 6.55
